Answer each item with its documented POLCO damage rating (100=total damage to plant; 0=no damage to plant).
Test system: plants
procedure-details: Test D post-emergence, other plants of Tables D2 and D4
Assay type: in vivo
assay-conditions: POLCO; "Cereals" Postemergent; Rates 500; evaluated after 15 d
Answer field: number only, no words.

Dear colleague, I am looking for the recorded POLCO damage rating (100=total damage to plant; 0=no damage to plant) of the following molecule: COc1c(F)cccc1NC(=O)C1C(=O)N(C)CC1c1cc(C(F)(F)F)n(C)n1 (racemic) [Compound 18]
0

Field request: POLCO damage rating (100=total damage to plant; 0=no damage to plant) | item: CN1CC(c2cc(C(F)(F)F)n(C)n2)C(C(=O)Nc2ccc(F)cc2F)C1=O (racemic) [Compound 6]
0

Item CN1CC(c2cc(C(F)(F)F)n(C)n2)C(C(=O)Nc2cccc(F)c2F)C1=O (racemic) [Compound 3] has what recorded POLCO damage rating (100=total damage to plant; 0=no damage to plant)?
0

Please report the recorded POLCO damage rating (100=total damage to plant; 0=no damage to plant) for CN1C[C@H](c2nn(C)c3c(F)cccc23)[C@@H](C(=O)Nc2cccc(F)c2F)C1=O [Compound 2] .
40
